From: patent US20020028938A1

readout: melting point

# count of solved cases: 5
CS(=O)(=O)c1ccc(-c2cnn(-c3ccc(F)cc3)c(=O)c2C2CCCCC2)cc1 [Example 228] = 231 to 233 °C
CC(C)CCCOc1c(-c2ccc(S(C)(=O)=O)cc2)cnn(-c2cccc(Cl)c2)c1=O [Example 413] = 139 to 140 °C
CON=C(Cn1ncc(-c2ccc(S(C)(=O)=O)cc2)c(-c2ccc(F)cc2)c1=O)c1ccccc1 [Example 443] = 95 to 99 °C
CS(=O)(=O)c1ccc(-c2cnn(CC(F)(F)F)c(=O)c2OC2CCc3ccccc32)cc1 (centres unmarked) [Example 276] = 113 to 114 °C
CSc1cccc(-n2ncc(-c3ccc(S(C)(=O)=O)cc3)c(-c3ccc(F)cc3)c2=O)c1 [Example 97] = 196 °C

Exercise: Suppose we examine the compound CS(=O)(=O)c1ccc(-c2cnn(-c3ccc(F)c(F)c3)c(=O)c2C#Cc2ccccc2)cc1 [Example 254] ; what melting point value has been reported?
Key: 211 to 213 °C

Exercise: Suppose we examine the compound C=C(C)CCOc1c(-c2ccc(S(C)(=O)=O)cc2)cnn(-c2ccc(F)cc2)c1=O [Example 425] ; what melting point value has been reported?
Key: 109 to 111 °C

Exercise: Suppose we examine the compound CS(=O)(=O)c1ccc(-c2cnn(-c3cccc(Cl)c3)c(=O)c2SCc2ccco2)cc1 [Example 360] ; what melting point value has been reported?
Key: 140 to 149 °C

Exercise: Suppose we examine the compound CCC(C)CCOc1c(-c2ccc(S(C)(=O)=O)cc2)cnn(-c2ccc(F)c(F)c2)c1=O (centres unmarked) [Example 351] ; what melting point value has been reported?
Key: 100 to 102 °C

Exercise: Suppose we examine the compound NS(=O)(=O)c1ccc(-c2cnn(Cc3ccc(F)cc3F)c(=O)c2-c2ccc(F)cc2)cc1 [Example 124] ; what melting point value has been reported?
Key: 236 to 238 °C

Exercise: Suppose we examine the compound NS(=O)(=O)c1ccc(-c2cnn(C3CC=CCC3)c(=O)c2-c2ccc(F)cc2)cc1 (centres unmarked) [Example 126] ; what melting point value has been reported?
Key: 206 to 208 °C
